What pIC50 was measured for each of the following?
- protocol-summary: Inhibition of Haemophilus influenzae acetyltransferase activity of GlmU using acetyl-CoA and glucosamine-1-phosphate after 30 mins by Ellman's method
pIC50: −log10 of the molar value.

*Q* Give the measured pIC50 for COc1cc(OC)c(S(=O)(=O)N2CCCCC2C)cc1NC(C)=O (stereo not drawn)
*A* < 3.70

*Q* Give the measured pIC50 for COc1cc(OC)c(S(=O)(=O)NCc2ccc3c(c2)OCO3)cc1NC(C)=O
*A* < 3.70

*Q* Give the measured pIC50 for COc1cc(OC)c(S(=O)(=O)N2CCCCC2)cc1NC(C)=O
*A* < 3.70

====

- protocol-summary: Lipophilicity, log D of the compound at pH 7.4
- condition-label: buffer
result-type: logD
// return just the number, without any unit appended

*Q* Give the measured logD for COc1cc(OC)c(S(=O)(=O)N2c3ccccc3CCC2C)cc1NC(=O)CCC(=O)O (stereo not drawn)
*A* -0.87

*Q* Give the measured logD for COc1cc(OC)c(S(=O)(=O)N2c3ccccc3CCC2C)cc1NC(=O)COCC(=O)O (stereo not drawn)
*A* -1
